src = patent US3997549A

Form field: mortality at 156 ppm (one value per entry).
- Test system: Mexican bean beetle
- Method summary: whole plant or invertebrate
- Experimental setup: Epilachna varivestis, 48 h, read-out: % Kill, BB (systemic)

# Compound, mortality at 156 ppm
measured = [
    ("CN(Sc1ccc(C(C)(C)C)cc1)C(=O)Oc1cccc2c1OC(C)(C)C2 [Example III]", "100%"),
    ("CNC(=O)Oc1cccc2c1OC(C)(C)C2 [Carbofuran, reference compound]", "100%"),
    ("CN(Sc1ccc2c(c1)OCO2)C(=O)Oc1cccc2c1OC(C)(C)C2 [XIV]", "94%"),
    ("Cc1cc(C(C)(C)C)ccc1SN(C)C(=O)Oc1cccc2c1OC(C)(C)C2 [Example VI]", "100%"),
    ("CN(Sc1nc2ccccc2s1)C(=O)Oc1cccc2c1OC(C)(C)C2 [Example VII]", "81%"),
    ("Cc1cccc(SN(C)C(=O)Oc2cccc3c2OC(C)(C)C3)c1 [Example X]", "100%"),
    ("Cc1ccccc1SN(C)C(=O)Oc1cccc2c1OC(C)(C)C2 [Example II]", "100%"),
    ("CN(Sc1ccc(Cl)cc1)C(=O)Oc1cccc2c1OC(C)(C)C2 [Example V]", "100%"),
    ("Cc1cc(Br)ccc1SN(C)C(=O)Oc1cccc2c1OC(C)(C)C2 [XI]", "100%"),
    ("Cc1ccc(SN(C)C(=O)Oc2cccc3c2OC(C)(C)C3)cc1 [IV]", "100%"),
]
